# Test system: Mus musculus
# assay overview: Toxicity in mouse L1210 cells implanted CDF1 mouse assessed as average weight gain at 0.4 mg/kg, ip single dose on day 1
# Type: organism-based
# Design: dose 0.4 mg/kg, route intraperitoneal
# applied conditions: in vivo
Recorded weight gain values for a group of compounds are listed next.
parameter: weight gain (g)

[
  {
    "smiles record": "CC[C@@]1(O)C[C@H](O[C@H]2C[C@H](N(C)C)[C@H](O[C@H]3C[C@H](O)[C@H](O)[C@H](C)O3)[C@H](C)O2)c2c(cc3c(c2O)C(=O)c2c(O)ccc(O)c2C3=O)[C@H]1C(=O)OC",
    "parameter": "weight gain",
    "unit spec": "g",
    "readout value": 2.7
  },
  {
    "smiles record": "CC[C@@]1(O)C[C@H](O[C@H]2C[C@H](N(C)C)[C@H](O[C@H]3C[C@H](O)[C@H](O[C@H]4C[C@H](O)[C@H](O)[C@H](C)O4)[C@H](C)O3)[C@H](C)O2)c2c(cc3c(c2O)C(=O)c2c(O)ccc(O)c2C3=O)[C@H]1C(=O)OC",
    "parameter": "weight gain",
    "unit spec": "g",
    "readout value": 2.8
  },
  {
    "smiles record": "CC[C@@]1(O)C[C@H](O[C@H]2C[C@H](NC)[C@H](O[C@H]3C[C@H](O)[C@H](O)[C@H](C)O3)[C@H](C)O2)c2c(cc3c(c2O)C(=O)c2c(O)ccc(O)c2C3=O)[C@H]1C(=O)OC",
    "parameter": "weight gain",
    "unit spec": "g",
    "readout value": 2.8
  }
]

Value source: ChEMBL document CHEMBL1148995
